experiment: Apparent permeability from basolateral to apical side in human Caco2 cells at 1 uM after […] by LC/MS/MS analysis; format: ADME, cell-based; conditions: Caco-2
measure: Papp B→A at 1 µM

// query Papp B→A at 1 µM value for entry `CN1CCc2c(cccc2C(=O)NCC2(N3CCN(c4ccccc4)CC3)CCCCC2)C1`
2.1 ×10⁻⁶ cm/s

---

target: UniProt:Q99572; assay: Antagonist activity at P2X7 receptor in human PBMC assessed as inhibition of BzATP-induced IL1beta release incubated 30 mins prior to BzATP-challenge measured after 1.5 hrs by ELISA
Overview of recorded pIC50 for various molecules
Expect pIC50 as a plain number equal to -log10 of the molar concentration.

In [3]: df
Out[3]:
                               smiles_input   tested_system  measure  reported_value
0  CN1CCc2c(cccc2C(=O)NCC2(N3CCN(c4ccccc4)CC3)CCCCC2)C1  UniProt:Q99572    pIC50            7.40

Kindly review the next molecule as well.
For the molecule `O=C(NCC1(N2CCN(c3ccccc3)CC2)CCOCC1)c1cccnc1Sc1ccccc1` , what pIC50 is on record?
7.60

---

Property: Ki; scope: individual molecules
Biological target: P2X purinoceptor 7 (Rattus norvegicus, UniProt Q64663)
Sequence (Q64663 whole entry): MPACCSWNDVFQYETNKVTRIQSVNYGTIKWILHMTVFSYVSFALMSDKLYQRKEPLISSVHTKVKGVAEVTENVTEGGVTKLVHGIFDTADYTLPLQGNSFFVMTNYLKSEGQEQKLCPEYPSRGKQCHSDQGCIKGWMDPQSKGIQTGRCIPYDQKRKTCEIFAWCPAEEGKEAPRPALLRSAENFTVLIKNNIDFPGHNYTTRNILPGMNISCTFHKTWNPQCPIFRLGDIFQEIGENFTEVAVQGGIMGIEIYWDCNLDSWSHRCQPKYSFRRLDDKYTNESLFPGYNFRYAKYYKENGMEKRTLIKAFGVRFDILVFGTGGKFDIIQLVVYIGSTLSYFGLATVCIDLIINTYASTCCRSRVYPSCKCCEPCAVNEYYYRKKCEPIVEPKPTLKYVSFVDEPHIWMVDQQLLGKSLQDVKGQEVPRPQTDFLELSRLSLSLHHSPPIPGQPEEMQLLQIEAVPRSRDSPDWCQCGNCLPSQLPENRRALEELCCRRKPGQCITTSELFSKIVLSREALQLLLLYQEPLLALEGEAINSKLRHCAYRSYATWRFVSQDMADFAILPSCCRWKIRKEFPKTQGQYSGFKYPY

>>> print(df.to_string())
                               smiles_input                             tested_system  reported_value
0  O=C(NCC1(N2CCN(c3ccccc3)CC2)CCOCC1)c1cccnc1Sc1ccccc1  P2X purinoceptor 7 (Rattus norvegicus, UniProt Q64663)            2 nM

Consider the molecule shown here: `CN1CCc2c(cccc2C(=O)NCC2(N3CCN(c4ccccc4)CC3)CCCCC2)C1` What is its recorded Ki?
0.794 nM

---

Biological target: P2X purinoceptor 7 (Homo sapiens)
Sequence (Q99572 whole entry): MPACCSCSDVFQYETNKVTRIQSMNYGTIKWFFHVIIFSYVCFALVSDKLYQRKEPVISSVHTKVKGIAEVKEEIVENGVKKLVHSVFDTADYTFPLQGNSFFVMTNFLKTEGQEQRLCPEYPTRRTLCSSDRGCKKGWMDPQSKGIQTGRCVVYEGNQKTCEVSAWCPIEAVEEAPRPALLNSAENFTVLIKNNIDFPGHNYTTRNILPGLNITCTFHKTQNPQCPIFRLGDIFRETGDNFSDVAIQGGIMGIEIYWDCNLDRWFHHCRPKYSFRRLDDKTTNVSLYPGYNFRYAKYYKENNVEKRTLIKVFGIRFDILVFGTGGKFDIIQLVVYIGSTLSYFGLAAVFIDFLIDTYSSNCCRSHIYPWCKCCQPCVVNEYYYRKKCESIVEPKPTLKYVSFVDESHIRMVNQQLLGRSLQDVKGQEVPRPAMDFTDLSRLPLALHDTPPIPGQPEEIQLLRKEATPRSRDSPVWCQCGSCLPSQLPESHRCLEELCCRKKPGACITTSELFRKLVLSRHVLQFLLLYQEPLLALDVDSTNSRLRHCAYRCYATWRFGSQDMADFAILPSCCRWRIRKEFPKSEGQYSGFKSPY
Experiment: Displacement of [3H]-A804598 from human recombinant P2X7 receptor expressed in human 1321N1 cell membranes after 1 hr by […]
measure: pKi
// pKi is dimensionless: -log10 of concentration (M)

>>> df
                               smiles_input                      tested_system  measure  reported_value
0  O=C(NCC1(N2CCN(c3ccccc3)CC2)CCOCC1)c1cccnc1Sc1ccccc1  P2X purinoceptor 7 (Homo sapiens)      pKi            7.90

// pKi lookup, key: `CN1CCc2c(cccc2C(=O)NCC2(N3CCN(c4ccccc4)CC3)CCCCC2)C1`
7.90
